Listing of entries alongside the reported inhibition.
# MEASURED_TARGET: Rac GTPase-activating protein 1 (Homo sapiens)
# EXPERIMENT_SUMMARY: blockers of MgcRacGAP-driven Rac1 GTP hydrolysis – biochemical, ADP Hunter fluorescence, primary and confirmatory, confirmation (AID 624330);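 also: fluorescence reports GDP produced by GAP-driven GTP hydrolysis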
# DETAILS: MgcRacGAP-stimulated Rac1 GTP hydrolysis, at 30 µM, hits give high values, GST-tagged Rac1 F28L mutant substrate
Out of some 340,000 compounds screened, about 2,100 (0.62%) were called active. The list is a sample of the results. Entries with a potency or affinity are not part of this list.
ENDPOINT_NAME: inhibition (%)

> print(dat)
                                    compound    val
 1        CN(C)c1ccc(Nc2nc(-c3cccnc3)cs2)cc1   14.4
 2          Cc1cc(C)nc(N/N=C/c2ccc(Cl)cc2)n1   7.83
 3  Cc1cc(C)c(C)c(S(=O)(=O)Nc2ccc(OCC(=O)O)cc2)c1C  -3.75
 4  O=C(O)c1cc([N+](=O)[O-])c(N2CCCC2)c([N+](=O)[O-])c1   9.56
 5  CC(O)[C@H]1CNC(=O)C(=O)N1CCc1cccc(F)c1 (stereo partly specified)   5.42
 6  COCCOCC(O)CN1CCN(c2ccc(C)cc2)CC1 (stereo unspecified)   24.5
 7              COc1ccc(/C=N/NC2=NCCCCC2)cc1  -0.36
 8  COCc1ccc(C(=O)N2CCCCC2C(=O)Nc2ccc(-n3nc(C)cc3C)cc2)o1 (stereo unspecified)   7.88
 9             CCCN1CNC(=S)N(c2ccc(C)cc2C)C1   16.6
10  [O-]/C(=C(\C(=S)Nc1cccc2ccccc12)[n+]1ccccc1)c1ccc(OC(F)F)cc1   8.46
11  CC(=O)c1ccc(NS(=O)(=O)c2c(C)cc(C)cc2C)cc1      2
12                 C/C(O)=C\c1nc2ccccc2oc1=O   18.1
13  COc1ccccc1N1C(=O)S/C(=C\c2cc(C)n(C)c2C)C1=O  -0.75
14   CC1=NOC(=O)/C1=C\c1ccc(-c2cccc(Cl)c2)o1   12.5
15  CCCCOc1ccccc1N1CCN(CCCN2C(=O)C3CCCN3C2=O)CC1 (stereo unspecified)   9.54
16  CCSc1nnc2n(-c3ccc(OC)cc3)c(=O)c3c4c(sc3n12)CCCC4  -3.51
17    O=C(COC(=O)c1ccccc1O)Nc1ccc(OC(F)F)cc1   6.22
18       C=CCN(CC=C)Cc1nc(N)nc(Nc2ccccc2C)n1    6.1
19  O=[N+]([O-])c1ccc(N2CCN(S(=O)(=O)c3ccc(Cl)c(Cl)c3)CC2)cc1NCCN1CCOCC1  -6.11
20         O=C(NCc1ccccc1)c1cc(=O)c2ccccc2o1   3.22
21             c1ccc(-c2csc(Nc3ccccn3)n2)cc1   13.5
22  CCC1=C(OC(=O)N(CC)CC)N2C(=O)OC(=NCC(=O)OC)[C@]2(Cc2ccccc2)[C@H]2C1=CC[C@H]1C(=O)N(C)C(=O)[C@H]12   0.87
23                Cc1ccc(Oc2ncccc2/C=N/O)cc1   5.93
24  CC1CCCN(C(=O)C2CCN(Cc3ccc4c(c3)OCO4)CC2)C1 (stereo unspecified)   5.33
25        Cc1ccnc(Nc2nc(-c3ccc(O)cc3O)cs2)c1   15.2
26  O=C(CNC(=O)c1ccc2c(c1)OCCO2)N/N=C/c1ccc(Cl)cc1   13.2
27   N#Cc1cccc(NC(=O)CN2CCN(Cc3ccccc3)CC2)c1   10.1
28                CC(=C1SC(=S)NC1=O)c1ccccc1  -4.42
29                  CCOc1ccc(OCCOCCNCCOC)cc1   12.8
30  O=[N+]([O-])c1ccccc1OCCOc1ccccc1[N+](=O)[O-]   7.67
31          CCOc1ccc(Nc2nc(-c3cccnc3)cs2)cc1   6.12
32       Cc1cc(C)c(S(=O)(=O)Nc2ccccc2)c(C)c1  -2.09
33  OC(COc1ccccc1Br)CN1CCNCC1 (stereo unspecified)    1.5
34      Cc1ccc(CNc2nc(C)nc3sc4c(c23)CCC4)cc1    5.5
35     Cc1ccc(CNC(=O)C(c2ccccc2)c2ccccc2)cc1   6.74
36  Cn1c(/N=C/c2ccccc2[N+](=O)[O-])nc2ccccc21   2.88
37           COc1cccc(Nc2nc(-c3cccnc3)cs2)c1   10.7
38      Cc1ccc(/C(N)=N/OC(=O)CCCc2ccccc2)cc1   7.16
39  Cc1ccccc1C(=O)NC1CC2CCCC(C1)N2Cc1ccccc1Cl (stereo unspecified)   11.5
40  O=C(CCCN1C(=O)c2ccccc2C1=O)Nc1cccc(S(=O)(=O)NC2=NCCC2)c1   9.21
41  COc1cc(C2N(c3cc(C)on3)C(=O)C3CCCN32)cc(OC)c1OC (stereo unspecified)   4.47
42  COC(=O)[C@@]12CCCN1[C@H](c1ccc(-c3ccccc3)cc1)[C@@H]1C(=O)N(C)C(=O)[C@@H]12   10.8
43  Cc1cc(C)c(C)c(S(=O)(=O)Nc2ccc(C(N)=O)cc2)c1C   13.9
44                   CN(C)C1=NCCN1CCCC1CCCC1   4.05
45       Cc1nc(Nc2cccc(O)c2)c2c3c(sc2n1)CCC3   10.2
46  CCC(C)N1CCCCC1C(=O)Nc1c(C)cc(C)cc1C (stereo unspecified)   2.22

Source: PubChem BioAssay AID624330
